- MEASURED_TARGET: ErbB2 insYVMA (HER2-YVMA, SEQ ID NO: 2) (Homo sapiens, UniProt P04626, INS775YVMA/P1170A)
- Sequence (P04626 with tags, fused parts or gaps INS775YVMA/P1170A limits assumed): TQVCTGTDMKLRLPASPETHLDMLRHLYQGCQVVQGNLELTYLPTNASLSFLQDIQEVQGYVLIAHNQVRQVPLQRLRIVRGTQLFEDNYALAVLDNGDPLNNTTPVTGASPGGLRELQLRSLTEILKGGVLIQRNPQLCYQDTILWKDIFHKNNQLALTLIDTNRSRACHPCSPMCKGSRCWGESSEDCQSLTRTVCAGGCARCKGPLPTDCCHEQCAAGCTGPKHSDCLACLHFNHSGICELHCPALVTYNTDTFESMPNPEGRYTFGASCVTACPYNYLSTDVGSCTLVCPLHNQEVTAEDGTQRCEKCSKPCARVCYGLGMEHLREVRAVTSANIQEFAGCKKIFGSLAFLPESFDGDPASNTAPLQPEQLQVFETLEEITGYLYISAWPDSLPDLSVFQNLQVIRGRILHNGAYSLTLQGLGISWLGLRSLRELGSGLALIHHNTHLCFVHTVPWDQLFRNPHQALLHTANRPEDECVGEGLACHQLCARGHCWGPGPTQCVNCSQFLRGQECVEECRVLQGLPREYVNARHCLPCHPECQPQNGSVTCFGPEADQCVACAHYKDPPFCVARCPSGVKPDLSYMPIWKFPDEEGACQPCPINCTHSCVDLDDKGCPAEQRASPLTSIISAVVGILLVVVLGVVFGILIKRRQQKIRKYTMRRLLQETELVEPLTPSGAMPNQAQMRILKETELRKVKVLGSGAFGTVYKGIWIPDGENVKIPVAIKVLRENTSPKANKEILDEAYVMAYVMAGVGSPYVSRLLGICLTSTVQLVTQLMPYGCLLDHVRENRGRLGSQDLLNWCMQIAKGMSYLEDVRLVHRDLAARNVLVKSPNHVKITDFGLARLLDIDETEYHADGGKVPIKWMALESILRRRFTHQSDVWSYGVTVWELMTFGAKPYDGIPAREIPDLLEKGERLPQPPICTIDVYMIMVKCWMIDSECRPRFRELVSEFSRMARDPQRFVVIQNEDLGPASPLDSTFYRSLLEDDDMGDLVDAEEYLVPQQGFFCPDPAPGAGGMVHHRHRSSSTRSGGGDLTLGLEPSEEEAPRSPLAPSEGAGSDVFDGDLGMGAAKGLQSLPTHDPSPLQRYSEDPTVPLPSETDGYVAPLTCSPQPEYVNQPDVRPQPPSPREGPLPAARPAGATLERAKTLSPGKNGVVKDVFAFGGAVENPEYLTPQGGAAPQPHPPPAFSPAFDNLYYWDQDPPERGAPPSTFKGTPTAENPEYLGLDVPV
- ASSAY_PROTOCOL: biochemical
- RUN_PARAMETERS: ErbB2 insYVMA enzyme assay; read-out: Assay 1 IC50

COMPOUND	IC50, nM
Cc1cc(Nc2ncnc3cnc(N(C)CC4(O)CC4)nc23)ccc1Oc1ccc2c(c1)ncn2C [Example 166]	16.1
Cc1cc(Nc2ncnc3cnc(N4CCN[C@@H](C(F)(F)F)C4)nc23)ccc1Oc1ccc2c(c1)ncn2C [Example 182]	29.5
Cc1c(Oc2ccn3ncnc3c2)ccc(Nc2ncnc3cnc(N(C)[C@H]4CN(C)C[C@H]4F)nc23)c1F [Example 320]	12.7
Cc1cc(Nc2ncnc3cnc(N4CC[C@@](O)(C(F)F)C4)nc23)ccc1Oc1ccc2c(c1)ncn2C (racemic) [Example 106]	16.8
N#CC[C@@H]1CCN(c2ncc3ncnc(Nc4ccc(Oc5ccn6ncnc6c5)c(Cl)c4)c3n2)C1 [Example 416]	11.3
Cc1cc(Nc2ncnc3cnc(N(C)[C@H]4C[C@@H](O)C4)nc23)ccc1Oc1ccc2c(c1)ncn2C [Example 183]	4.4
CON(C)CCNc1ncc2ncnc(Nc3ccc(Oc4ccc5c(c4)ncn5C)c(C)c3)c2n1 [Example 219]	14.8
